Target: Ac-Arg-His-Lys-Lys^Ac-NH2
Test: ITC binding of STACs to Ac-Arg-His-Lys-Lys^Ac-X, X=NH2
Conditions: 10% DMSO for SRT1720, SRT2183 and 10, no cosolvent for SRT1460
Protocol: ITC experiments were performed using either a VP-ITC system or iTC200 system (MicroCal) at 26° C. in a buffer composed of 137 mM NaCl, 2.7 mM KCl, 1 mM MgCl2, 2 mM TCEP, 5% (v/v) glycerol and 50 mM HEPES-NaOH, pH 7.3. SIRT1(183-664) was purified and dialyzed against the buffer, centrifuged, and degassed before the experiment. The peptide and compounds were dissolved in the final dialysis buffer and their pH values were adjusted to match that of the protein solution. […]
pKd: −log10 of the molar value.

molecular string: CCCCc1nc(NC2CCNCC2)cc(C(=O)Nc2ccccc2-c2nc3cc(COC4CCNCC4)cnc3s2)n1
pKd: < 3.30
//
molecular string: O=C(Nc1ccccc1-c1cn2c(CN3CCNCC3)csc2n1)c1cnc2ccccc2n1
pKd: < 3.30
//
molecular string: O=C(Nc1ccccc1-c1cn2c(CN3CC[C@@H](O)C3)csc2n1)c1ccc2ccccc2c1
pKd: < 4.30
//
molecular string: COc1cc(C(=O)Nc2ccccc2-c2cn3c(CN4CCNCC4)csc3n2)cc(OC)c1OC
pKd: < 3.30

* * *

Target: SIRT1(183-664) (Homo sapiens)
Construct: the truncated version used for biophysical studies SIRT1(183-664); made in house
Test: ITC binding of STACs to SIRT1(183-664)
Conditions: dissociation constant of SRT:SIRT1 complex, read-out: Kx (μM), ITC
Counter-ions that a name gives are not always drawn.

compound: Cc1nc(-c2cccnc2)sc1C(=O)Nc1ccccc1-c1cn2c(CN3CC4CC3CN4)csc2n1 (stereo not drawn) [Compound 4]
study target: SIRT1(183-664) (Homo sapiens)
endpoint unit: µM
Kd: 3

compound: CN(C)CCCNc1cc(-c2nc3c(NC(=O)c4ccc(CN5CCNCC5)cc4)cccc3[nH]2)ccn1 [drawing 21]
study target: SIRT1(183-664) (Homo sapiens)
endpoint unit: µM
Kd: 0.32

compound: CCCNc1cc(-c2nc3c(NC(=O)c4ccc(CN5CCNCC5)cc4)cccc3[nH]2)ccn1 [Compound 13]
study target: SIRT1(183-664) (Homo sapiens)
endpoint unit: µM
Kd: 0.32

compound: CN(C)CCCNc1cc(-c2nc3c(NC(=O)c4ccc(CN5CCNCC5)cc4)cccc3[nH]2)ccn1 [Compound 14, trihydrochloride]
study target: SIRT1(183-664) (Homo sapiens)
endpoint unit: µM
Kd: 0.43

compound: CN(C)Cc1cnc2sc(-c3ccccc3NC(=O)c3cnc4ccccc4n3)nc2c1 [Compound 2]
study target: SIRT1(183-664) (Homo sapiens)
endpoint unit: µM
Kd: 0.32

compound: CCCNc1cc(-c2nc3c(NC(=O)c4ccc(CN5CCNCC5)cc4)cccc3[nH]2)ccn1 [drawing 20]
study target: SIRT1(183-664) (Homo sapiens)
endpoint unit: µM
Kd: 0.43

* * *

Target: SIRT1 (Homo sapiens, UniProt Q96EB6)
Sequence (Q96EB6 whole entry): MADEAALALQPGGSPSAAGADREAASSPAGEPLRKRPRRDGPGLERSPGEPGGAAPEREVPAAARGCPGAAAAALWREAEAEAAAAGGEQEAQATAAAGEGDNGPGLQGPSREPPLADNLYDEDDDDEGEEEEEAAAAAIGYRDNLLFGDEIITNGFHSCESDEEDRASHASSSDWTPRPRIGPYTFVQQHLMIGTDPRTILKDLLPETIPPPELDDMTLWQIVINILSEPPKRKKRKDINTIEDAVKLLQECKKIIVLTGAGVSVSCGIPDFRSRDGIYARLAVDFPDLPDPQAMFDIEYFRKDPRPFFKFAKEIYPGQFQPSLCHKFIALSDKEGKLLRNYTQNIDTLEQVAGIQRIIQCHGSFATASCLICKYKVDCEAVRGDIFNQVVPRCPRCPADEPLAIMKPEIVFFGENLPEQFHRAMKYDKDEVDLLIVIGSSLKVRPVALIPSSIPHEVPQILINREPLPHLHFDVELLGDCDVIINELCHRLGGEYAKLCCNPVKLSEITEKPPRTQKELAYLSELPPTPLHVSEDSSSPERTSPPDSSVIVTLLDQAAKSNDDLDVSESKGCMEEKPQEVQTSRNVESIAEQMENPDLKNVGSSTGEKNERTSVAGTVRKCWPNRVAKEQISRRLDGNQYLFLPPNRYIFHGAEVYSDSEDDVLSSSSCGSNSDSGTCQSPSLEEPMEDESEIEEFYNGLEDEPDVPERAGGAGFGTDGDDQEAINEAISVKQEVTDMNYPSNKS
Test: Continuous PNC1-GDH-coupled assay of SIRT1-catalyzed deacetylation of Ac-Arg-His-Lys-Lys^Ac-X with STACs
Type: biochemical
Settings: [SRT]o = 5 μM, [peptide]o ≦ Km, [NAD+] = 70 μM; Ac-Arg-His-Lys-Lys^Ac-Ala-NH2

molecular string: O=C(Nc1ccccc1-c1cn2c(CN3CC[C@@H](O)C3)csc2n1)c1ccc2ccccc2c1
study target: SIRT1 (Homo sapiens, UniProt Q96EB6)
Relative Velocity, X=Ala-NH2: 0.8
//
molecular string: CCCCc1nc(NC2CCNCC2)cc(C(=O)Nc2ccccc2-c2nc3cc(COC4CCNCC4)cnc3s2)n1
study target: SIRT1 (Homo sapiens, UniProt Q96EB6)
Relative Velocity, X=Ala-NH2: 0.3
//
molecular string: COc1cc(C(=O)Nc2ccccc2-c2cn3c(CN4CCNCC4)csc3n2)cc(OC)c1OC
study target: SIRT1 (Homo sapiens, UniProt Q96EB6)
Relative Velocity, X=Ala-NH2: 1.1
//
molecular string: O=C(Nc1ccccc1-c1cn2c(CN3CCNCC3)csc2n1)c1cnc2ccccc2n1
study target: SIRT1 (Homo sapiens, UniProt Q96EB6)
Relative Velocity, X=Ala-NH2: 0.9

* * *

Biological target: SIRT1 (Homo sapiens, UniProt Q96EB6)
Assay: Mass spectrometry based SIRT1 activation assay (TAMRA/5TMR-labeled 20mer peptide)
Type: biochemical
Conditions: concentration that results in 150% activation of SIRT1
Structures can show the parent of a compound that is named as a salt.

molecule: CCCCc1nc(NC2CCNCC2)cc(C(=O)Nc2ccccc2-c2nc3cc(COC4CCNCC4)cnc3s2)n1
EC1.5 uM: A (EC1.5≦1 μM)

molecule: CC(C)Cc1nc(NC2CCNCC2)cc(C(=O)Nc2ccccc2-c2nc3cc(COC4CCNCC4)cnc3s2)n1
EC1.5 uM: A (EC1.5≦1 μM)

molecule: O=C(Nc1ccccc1-c1nc2cc(CN3CC[C@@H](F)C3)cnc2s1)c1cccc(OC2CN3CCC2CC3)c1 (stereo partly shown)
EC1.5 uM: B (EC1.5>1 μM)

molecule: CCCNc1cc(-c2nc3c(NC(=O)c4cccc(C5CCNC5)c4)cccc3[nH]2)ccn1 (stereo not shown) [Compound 15, hydrochloride]
EC1.5 uM: A (EC1.5≦1 μM)

molecule: CN(C)Cc1cnc2sc(-c3ccccc3NC(=O)c3cnc4ccccc4n3)nc2c1
EC1.5 uM: B (EC1.5>1 μM)

molecule: CCCCc1nc(NCCNC)cc(C(=O)Nc2ccccc2-c2nc3cc(COC4CCNCC4)cnc3s2)n1
EC1.5 uM: A (EC1.5≦1 μM)

molecule: O=C(Nc1ccccc1-c1nc2cc(CCC3CCNCC3)cnc2s1)c1cccc(C2CCNC2)c1 (stereo not shown)
EC1.5 uM: A (EC1.5≦1 μM)

molecule: CCCNc1cc(-c2nc3c(NC(=O)c4ccc(CN5CCNCC5)cc4)cccc3[nH]2)ccn1
EC1.5 uM: A (EC1.5≦1 μM)

molecule: CN(C)CCCNc1cc(-c2nc3c(NC(=O)c4ccc(CN5CCNCC5)cc4)cccc3[nH]2)ccn1 [Compound 14, trihydrochloride]
EC1.5 uM: A (EC1.5≦1 μM)

molecule: O=C(Nc1ccccc1-c1cn2c(CN3CCNCC3)csc2n1)c1cccc(-c2ccccc2)c1
EC1.5 uM: A (EC1.5≦1 μM)

molecule: CC(C)CNCC1CC1C(=O)Nc1ccccc1-c1nc2cc(CN3CCNCC3)cnc2s1 (stereo not shown)
EC1.5 uM: B (EC1.5>1 μM)

molecule: COc1ccc(C(=O)Nc2ccccc2-c2nc3cc(COC4CCNCC4)cnc3s2)cc1OC
EC1.5 uM: A (EC1.5≦1 μM)

molecule: CN(C)CCNCc1cccc(C(=O)Nc2ccccc2-c2nc3cc(COC4CCNCC4)cnc3s2)c1
EC1.5 uM: B (EC1.5>1 μM)

molecule: CN(C)CCCNc1ccc(-c2nc3cc(NC(=O)c4cccc(CN5CCNCC5)c4)ccc3[nH]2)cn1
EC1.5 uM: B (EC1.5>1 μM)

molecule: CCCCN(CCCC)c1cc(-c2nc3c(C(=O)Nc4cccc(COC5CCNCC5)c4)cccc3[nH]2)ccn1
EC1.5 uM: A (EC1.5≦1 μM)

molecule: O=C(Nc1ccccc1-c1cn2c(CN3CCNCC3)csc2n1)c1nc2ncccc2o1
EC1.5 uM: B (EC1.5>1 μM)

* * *

Target: SIRT1(183-664) (Homo sapiens)
Construct: the truncated version used for biophysical studies SIRT1(183-664); made in house
Experiment: Fluorescence binding experiment with SIRT1(183-664)
Conditions: excitation 315 nm, emission 450 nm; read-out: Kx (μM), Fluorescence
Structures can show the parent of a compound that is named as a salt.
Documented Kd across a set of molecules
parameter: Kd (µM)

molecule: CN(C)Cc1cnc2sc(-c3ccccc3NC(=O)c3cnc4ccccc4n3)nc2c1
endpoint unit: µM
result: 0.27
--
molecule: CN(C)CCCNc1cc(-c2nc3c(NC(=O)c4ccc(CN5CCNCC5)cc4)cccc3[nH]2)ccn1 [Compound 14, trihydrochloride]
endpoint unit: µM
result: 0.27

* * *

Molecular target: SIRT1 (Homo sapiens, UniProt Q96EB6)
Test: Mass spectrometry based SIRT1 activation assay (TAMRA/5TMR-labeled 20mer peptide)
Format: biochemical
Conditions: 25 min; percent maximum fold activation of SIRT1; read-out: % FOLD ACT.
Counter-ions that a name gives are not always drawn.
Documented Emax across a set of compounds

compound: O=C(Nc1ccccc1-c1nc2cc(CCC3CCNCC3)cnc2s1)c1cccc(C2CCNC2)c1 (centres unmarked) [Compound 7]
study target: SIRT1 (Homo sapiens, UniProt Q96EB6)
Emax: ≥ 200%

compound: COc1ccc2nc(NC(=O)c3cccc4[nH]c(-c5ccc(N6CCNCC6)nc5)nc34)sc2c1 [Compound 19]
study target: SIRT1 (Homo sapiens, UniProt Q96EB6)
Emax: ≥ 200%

compound: CN(C)CCCNc1cc(-c2nc3c(NC(=O)c4ccc(CN5CCNCC5)cc4)cccc3[nH]2)ccn1 [Compound 14, trihydrochloride]
study target: SIRT1 (Homo sapiens, UniProt Q96EB6)
Emax: ≥ 200%

compound: O=C(Nc1ccccc1-c1nc2cc(CN3CC[C@@H](F)C3)cnc2s1)c1cccc(OC2CN3CCC2CC3)c1 (some centres unmarked) [Compound 5]
study target: SIRT1 (Homo sapiens, UniProt Q96EB6)
Emax: ≥ 200%

compound: CCCCc1nc(NC2CCNCC2)cc(C(=O)Nc2ccccc2-c2nc3cc(COC4CCNCC4)cnc3s2)n1 [Compound 10]
study target: SIRT1 (Homo sapiens, UniProt Q96EB6)
Emax: ≥ 200%

compound: O=C(Nc1cccc(COC2CCNCC2)c1)c1cccc2[nH]c(-c3ccnc(N4CCOCC4)c3)nc12 [Compound 17]
study target: SIRT1 (Homo sapiens, UniProt Q96EB6)
Emax: ≥ 200%

compound: CN(C)Cc1cnc2sc(-c3ccccc3NC(=O)c3cnc4ccccc4n3)nc2c1 [Compound 2]
study target: SIRT1 (Homo sapiens, UniProt Q96EB6)
Emax: < 200%

compound: CN(C)CCNCc1cccc(C(=O)Nc2ccccc2-c2nc3cc(COC4CCNCC4)cnc3s2)c1 [Compound 9]
study target: SIRT1 (Homo sapiens, UniProt Q96EB6)
Emax: < 200%

Numbers sourced from patent US20130102009A1.
